Can you tell me Ligand Binding Inhibition (%) for the items I'm about to list?
- Target under test: T1, human CD40 on cells (human, UniProt P25942 21-277)
- T1 construct: also called CD40 receptor on human B cells
- T1 sequence (P25942 21-277 limits assumed): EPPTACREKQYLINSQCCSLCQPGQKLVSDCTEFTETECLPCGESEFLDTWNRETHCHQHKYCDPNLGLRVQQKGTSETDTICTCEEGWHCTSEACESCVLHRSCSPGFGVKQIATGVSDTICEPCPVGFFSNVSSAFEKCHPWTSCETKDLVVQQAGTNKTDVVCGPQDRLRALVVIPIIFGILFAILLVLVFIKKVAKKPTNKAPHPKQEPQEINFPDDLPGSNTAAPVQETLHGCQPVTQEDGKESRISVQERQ
- Assay name: flow cytometry, labelled CD40L on CD40-293T cells, antibody at 20 ug/ml
Give bare numbers, in %.

binder="33H9 (antibody, IgG4, V domains shown, also called 4897-1) VH: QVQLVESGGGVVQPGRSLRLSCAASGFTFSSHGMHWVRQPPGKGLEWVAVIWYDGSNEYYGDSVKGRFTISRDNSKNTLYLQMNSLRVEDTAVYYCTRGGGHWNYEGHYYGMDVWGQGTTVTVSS VL: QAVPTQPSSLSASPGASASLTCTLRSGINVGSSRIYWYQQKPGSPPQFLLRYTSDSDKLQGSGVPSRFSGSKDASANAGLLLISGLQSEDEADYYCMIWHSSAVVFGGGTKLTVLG" recorded_value=1

Items follow; give Ligand Binding Inhibition (%) for each.
1. 35F11 (antibody, IgG4, V domains shown, also called 4868-1) VH: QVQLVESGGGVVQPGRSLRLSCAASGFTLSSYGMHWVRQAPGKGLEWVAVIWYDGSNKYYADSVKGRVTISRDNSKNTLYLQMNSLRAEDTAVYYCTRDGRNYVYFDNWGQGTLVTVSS VL: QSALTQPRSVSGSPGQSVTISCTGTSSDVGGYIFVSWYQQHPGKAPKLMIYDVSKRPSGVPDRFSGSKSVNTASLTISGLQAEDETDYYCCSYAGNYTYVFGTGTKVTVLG
2. 4G7 (antibody, IgG4, V domains shown, also called 4869-1) VH: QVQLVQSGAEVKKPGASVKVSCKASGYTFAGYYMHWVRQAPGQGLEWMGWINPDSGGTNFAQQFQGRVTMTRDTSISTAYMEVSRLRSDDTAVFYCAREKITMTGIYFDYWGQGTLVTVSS VL: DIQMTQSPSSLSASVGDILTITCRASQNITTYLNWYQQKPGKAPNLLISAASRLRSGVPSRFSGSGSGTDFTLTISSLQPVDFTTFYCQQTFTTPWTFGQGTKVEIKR
3. 37A6 (antibody, IgG4, V domains shown, also called 4865-1) VH: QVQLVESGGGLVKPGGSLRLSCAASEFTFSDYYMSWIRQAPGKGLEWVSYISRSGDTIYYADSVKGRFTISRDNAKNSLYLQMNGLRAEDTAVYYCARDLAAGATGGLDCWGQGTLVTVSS VL: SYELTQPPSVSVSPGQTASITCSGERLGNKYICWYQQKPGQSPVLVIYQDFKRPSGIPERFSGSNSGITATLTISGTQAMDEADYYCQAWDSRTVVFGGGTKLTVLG

1: 8; 2: 3; 3: 12
